assay.protocol: LD50 in mice, method of Litchfield-Wilcoxon
Assay type: in vivo
condition.details: mouse, in vivo; mice, po
test.readout: LD50 (mg/kg)
State the answer as a number, implicitly in mg/kg.

Endpoint output: LD50 of CN1C(=O)OC(C)(C)C1=O [Trimethadione, reference compound] . Value?
2200

Please give the measured LD50 for this compound: CNCCCCOc1ccccc1C=Cc1ccccc1 [compound 2]
839

For the compound CN(C)CCCCOc1ccccc1C=Cc1ccccc1.Cl [Example 1] , what LD50 is on record?
1300

Find the recorded LD50 belonging to OCCN1CCN(CCCCOc2ccccc2C=Cc2ccccc2)CC1 [compound 4] and report it.
1050

Requested field: LD50. Item: C(=Cc1ccccc1OCCCCN1CCCC1)c1ccccc1 [compound 7]
600

Which LD50 is reported for this compound? OC1CCCN(CCCCOc2ccccc2C=Cc2ccccc2)C1 (stereo not shown) [compound 6]
415

What value of LD50 has been recorded for this entry: C(=Cc1ccccc1OCCCCN1CCCCC1)c1ccccc1 [compound 5]
621
